Sourced from patent US9221761B2

# System: HCT116
# experimental_protocol: FMCA (Fluorometric Microculture Cytotoxicity Assay) cytotoxicity
# Assay type: cell-based
# measurement_setup: Table 1; 72 hours of continuous compound exposure
quantity: pIC50
// scale note: pIC50 = -log10(conc_M); give the bare number

Ask | If you can, please state the reported pIC50 value of O=C1C(=Cc2ccc(Cl)cc2)CCNCC1=Cc1ccc([N+](=O)[O-])cc1 [Compound 1592] .
Reply | 4.92

Ask | Consider the compound shown here: O=C1C(=Cc2ccccc2[N+](=O)[O-])CCNCC1=Cc1ccccc1[N+](=O)[O-] [Compound 1536] What is its recorded pIC50?
Reply | 5.16

Ask | Reported pIC50 for COc1ccc(C=C2CN(C)CCC(=Cc3ccc(Cl)cc3)C2=O)cc1 [Compound 1590] : what is it?
Reply | 5.70

Ask | Please look up its pIC50: CN1CCC(=Cc2ccc(F)c(C(F)(F)F)c2)C(=O)C(=Cc2ccc(F)c(C(F)(F)F)c2)C1 [Compound 1609]
Reply | 5.85

Ask | Would you mind telling me what pIC50 value was observed for O=C1C(=Cc2cccc([N+](=O)[O-])c2)CCNCC1=Cc1cccc([N+](=O)[O-])c1 [Compound 1535] ?
Reply | 5.23

Ask | Field request: pIC50 | item: O=C1C(=Cc2ccc(F)cc2)CCNCC1=Cc1ccc(Cl)cc1 [Compound 1582]
Reply | 5.77

Ask | // lookup pIC50 for O=C1C(=Cc2ccc([N+](=O)[O-])cc2)CCNCC1=Cc1ccc([N+](=O)[O-])cc1 [Compound 1613]
Reply | 4.60

Ask | What value of measured pIC50 is listed for N#Cc1ccc(C=C2CCNCC(=Cc3ccc(C#N)cc3)C2=O)cc1 [Compound 1625] ?
Reply | 6.05

###

# System: HCT116
# experimental_protocol: FMCA (Fluorometric Microculture Cytotoxicity Assay) cytotoxicity
# Assay type: cell-based
# measurement_setup: Table 1; 72 hours of continuous compound exposure
quantity: pIC50
The value called pIC50 is obtained by taking minus log10 of the concentration in mol/L.

Ask | Would you kindly share the measured pIC50 for CN1CCC(=Cc2ccc(F)c(Cl)c2)C(=O)C(=Cc2ccc(F)c(Cl)c2)C1 ?
Reply | 5.74

Ask | May I ask what pIC50 has been recorded for O=C1C(=Cc2ccc(F)cc2)CCNCC1=Cc1ccc(F)cc1 ?
Reply | 6.00

Ask | Entry CN1CCC(=Cc2ccc(C#N)cc2)C(=O)C(=Cc2ccc(C#N)cc2)C1 has what pIC50?
Reply | 5.35

Ask | If you can, please state the reported pIC50 value of O=C1C(=Cc2ccc(Cl)cc2)CCNCC1=Cc1ccc(F)cc1 .
Reply | 5.96

Ask | Give the measured pIC50 of CN1CCC(=Cc2ccc(F)c([N+](=O)[O-])c2)C(=O)C(=Cc2ccc(F)c([N+](=O)[O-])c2)C1 .
Reply | 5.82

Ask | Look at this molecule and give its reported pIC50. COc1ccc(C=C2CNCCC(=Cc3ccc(F)cc3)C2=O)cc1
Reply | 5.80

Ask | Bench note: what pIC50 did CN1CCC(=Cc2ccc(F)cc2)C(=O)C(=Cc2ccc([N+](=O)[O-])cc2)C1 show?
Reply | 5.52

Ask | // query pIC50 value for entry COc1ccc(C=C2CN(C)CCC(=Cc3ccc([N+](=O)[O-])cc3)C2=O)cc1
Reply | 5.51
